- Assayed system: human norepinephrine transporter (hNET) (Homo sapiens, UniProt P23975)
- Sequence (P23975 whole entry): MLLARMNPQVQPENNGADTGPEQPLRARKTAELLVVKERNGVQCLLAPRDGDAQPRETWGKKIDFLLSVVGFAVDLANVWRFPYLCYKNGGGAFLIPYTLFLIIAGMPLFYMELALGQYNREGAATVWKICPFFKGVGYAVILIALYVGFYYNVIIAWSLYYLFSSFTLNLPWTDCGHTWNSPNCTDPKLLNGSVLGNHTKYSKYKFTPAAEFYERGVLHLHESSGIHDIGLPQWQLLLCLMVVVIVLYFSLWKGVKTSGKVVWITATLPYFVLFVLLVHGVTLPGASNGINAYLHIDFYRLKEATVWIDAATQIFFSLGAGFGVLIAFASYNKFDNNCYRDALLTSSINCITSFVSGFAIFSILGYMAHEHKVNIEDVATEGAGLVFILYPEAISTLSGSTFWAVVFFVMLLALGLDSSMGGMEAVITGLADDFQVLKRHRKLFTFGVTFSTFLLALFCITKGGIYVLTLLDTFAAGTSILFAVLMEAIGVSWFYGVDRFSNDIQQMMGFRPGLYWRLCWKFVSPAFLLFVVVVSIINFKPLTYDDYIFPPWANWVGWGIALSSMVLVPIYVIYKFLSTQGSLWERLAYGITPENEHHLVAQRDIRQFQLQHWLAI
- Experimental protocol: hNET uptake, Protocol B: cell based norepinephrine reuptake assay using recombinant hNET (MDCK-Net6 cells)
- Measurement conditions: NE uptake (Protocol B) IC50 (nM), MDCK-Net6 cells, 3H-NE 16 nM
Where a name gives a salt, the structure may show the parent alone.
Reported log10 of IC50 values follow for various compounds
log10 IC50, nM

Here are 6 compounds together with their reported answers.
CNCCCN1c2cc(C)ccc2N(c2ccccc2)S1(=O)=O ... 2.40
O=S1(=O)N(CCCNC2CCNCC2)c2ccccc2N1c1ccccc1 [Example 132, dihydrochloride] ... 2.43
CNCCCN1c2cc(Br)ccc2N(c2ccccc2)S1(=O)=O ... 3.37
CNCCCN1c2ccccc2N(c2ccc(F)cc2Cl)S1(=O)=O [Example 60, hydrochloride] ... 1.60
O=S1(=O)N(CCCNC2CCCC2)c2ccccc2N1c1c(F)cccc1F [Example 129, hydrochloride] ... 2.29
CNCCCCN1c2ccccc2N(c2ccc(O)cc2F)S1(=O)=O [Example 93, hydrochloride] ... 0.48

Next compound, please.
Item: "CNCCCN1c2cc(C#N)ccc2N(c2ccccc2)S1(=O)=O" | log10 of IC50: 3.12
